Let's look at some molecules and their measured log10 of IC50.
- assay.target: human FABP4 (huFABP4) (Homo sapiens (Human))
- test.summary: Tb TR-FRET assay, binding of Bodipy labeled fatty acid to His6 tagged huFABP4
- settings: 50 nM FABP protein, […] Bodipy labeled fatty acid; read-out: IC50 h-fabp4-ecoli-r
log10 IC50, nM

Use the examples below as a reference point.
O=C(O)[C@H]1CCCN1C(=O)Nc1cc(Cl)ccc1-c1ccccc1: 2.08
O=C(O)[C@H]1CCCN1C(=O)Nc1cc(Cl)ccc1C1=CCCCC1: 3.04
O=C(O)[C@H]1CCN1C(=O)Nc1ccccc1-c1ccccc1: 1.90
O=C(O)[C@H]1CCN1C(=O)Nc1cc(Cl)ccc1-c1ccc(F)cc1F: 1.48
O=C(O)[C@H]1CCN1C(=O)Nc1cc(Cl)ccc1-c1cc(F)cc(F)c1: 1.78
N#Cc1cc(Cl)cc(NC(=O)N2CCC[C@@H]2C(=O)O)c1-c1ccccc1: 2.28
O=C(O)[C@H]1CCCN1C(=O)Nc1ccccc1Oc1ccccc1: 4.07
O=C(O)[C@H]1CCCN1C(=O)Nc1cc(Cl)cc(C2=CCCCC2)c1-c1ccccc1: 2.72
O=C(O)[C@H]1CCCN1C(=O)Nc1ccccc1Cc1ccccc1: 3.52
O=C(O)[C@H]1CSCN1C(=O)Nc1ccccc1-c1ccccc1: 2.52

Give recorded log10 of IC50 with human FABP4 (huFABP4) (Homo sapiens (Human)) for the following molecule: Cc1ccccc1-c1ccc(Cl)cc1NC(=O)N1CCC[C@@H]1C(=O)O
3.44

Another molecule to look at: O=C(O)[C@H]1CCCN1C(=O)Nc1cc(Cl)ccc1-c1ccncc1
3.30

Another molecule to look at: NC(=O)c1cccc(-c2ccc(Cl)cc2NC(=O)N2CCC[C@@H]2C(=O)O)c1
4.05

Another molecule to look at: O=C(O)[C@H]1CCN1C(=O)Nc1cc(Cl)c(F)cc1-c1ccccc1
1.30

Another molecule to look at: C=CCc1cc(Cl)cc(NC(=O)N2CCC[C@@H]2C(=O)O)c1-c1ccccc1
2.04

----------
- assay.target: human FABP5 (huFABP5) (Homo sapiens (Human), UniProt Q01469)
- Sequence (Q01469 whole entry): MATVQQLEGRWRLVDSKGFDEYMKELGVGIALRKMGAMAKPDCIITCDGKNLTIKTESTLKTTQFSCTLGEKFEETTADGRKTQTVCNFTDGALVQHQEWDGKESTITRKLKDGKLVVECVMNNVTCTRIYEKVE
- test.summary: Tb TR-FRET assay, binding of Bodipy labeled fatty acid to His6 tagged huFABP5
- settings: 50 nM FABP protein, […] Bodipy labeled fatty acid; read-out: IC50 h-fabp5-ecoli-r
Let's look at some molecules and their measured pIC50.
Answer as the number alone; pIC50 is minus log10 of concentration in mol/L.

Use the examples below as a reference point.
C=CCc1cc(Cl)cc(NC(=O)N2CCC[C@@H]2C(=O)O)c1-c1ccccc1 [Example 23]: 5.89
Cc1cc(-c2ccccc2)c(NC(=O)N2CC[C@@H]2C(=O)O)cc1Cl [Example 31]: 5.29
O=C(O)[C@H]1CCN1C(=O)Nc1cc(Cl)c(F)cc1-c1ccccc1 [Example 30]: 4.40

Kindly review the next molecule as well.
Field request: pIC50 | item: COc1cc(Cl)cc(NC(=O)N2CC[C@@H]2C(=O)O)c1-c1ccc(F)cc1 [Example 64]
5.18

----------
- assay.target: human FABP5 (huFABP5) (Homo sapiens (Human))
- test.summary: Tb TR-FRET assay, binding of Bodipy labeled fatty acid to His6 tagged huFABP5
- settings: read-out: IC50 h-fabp5-ecoli-r
recorded.metric: IC50

Field request: IC50 | item: O=C(O)[C@@H]1[C@H]2C[C@H]2CN1C(=O)Nc1ccccc1-c1ccccc1 (racemic) [Example 9]
> 50 µM

----------
- assay.target: human FABP5 (huFABP5) (Homo sapiens (Human), UniProt Q01469)
- test.summary: Tb TR-FRET assay, binding of Bodipy labeled fatty acid to His6 tagged huFABP5
- settings: 50 nM FABP protein, […] Bodipy labeled fatty acid; read-out: IC50 h-fabp5-ecoli-r
Let's look at some compounds and their measured IC50.

O=C(O)[C@H]1CCCN1C(=O)Nc1cc(Cl)ccc1Oc1ccccc1: > 50 µM
O=C(O)[C@H]1CCCN1C(=O)Nc1cc(Cl)cc(C2=CCCCC2)c1-c1ccccc1: 0.07 µM
O=C(O)[C@H]1CCN1C(=O)Nc1cc(Cl)ccc1-c1ccccc1F: > 50 µM
Cc1ccccc1-c1ccc(Cl)cc1NC(=O)N1CCC[C@@H]1C(=O)O: > 50 µM

Field request: IC50 | item: O=C(O)[C@H]1CCCN1C(=O)Nc1cc(Cl)ccc1-c1ccncc1
> 50 µM

Another compound to look at: O=C(O)[C@H]1CCCN1C(=O)Nc1c(-c2ccccc2)sc2ncccc12
> 50 µM

Another compound to look at: O=C(O)[C@H]1CCCN1C(=O)Nc1cc(Cl)ccc1-c1ccsc1
> 10.4 µM

----------
Let's look at some compounds and their measured pIC50.
- assay.target: human FABP4 (huFABP4) (Homo sapiens (Human))
- test.summary: Tb TR-FRET assay, binding of Bodipy labeled fatty acid to His6 tagged huFABP4
- settings: 50 nM FABP protein, […] Bodipy labeled fatty acid; read-out: IC50 h-fabp4-ecoli-r
Answer as the number alone; pIC50 is minus log10 of concentration in mol/L.

O=C(O)[C@H]1CCN1C(=O)Nc1cc(Cl)ccc1-c1ccc(F)cc1: 7.52
O=C(O)[C@H]1CCCN1C(=O)Nc1cc(Cl)ccc1-c1ccc(Cl)cc1: 5.68
O=C(O)C1CCCCN1C(=O)Nc1ccccc1-c1ccccc1 (centres unmarked): 5.09

Give recorded pIC50 with human FABP4 (huFABP4) (Homo sapiens (Human)) for the following compound: O=C(O)[C@H]1CCCN1C(=O)Nc1cc(OC(F)(F)F)ccc1-c1ccccc1
5.24

Another compound to look at: O=C(Nc1ccccc1-c1ccccc1)N1CCCC1(C(=O)O)c1ccccc1 (centres unmarked)
6.21

----------
- assay.target: human FABP4 (huFABP4) (Homo sapiens (Human))
- test.summary: Tb TR-FRET assay, binding of Bodipy labeled fatty acid to His6 tagged huFABP4
- settings: read-out: IC50 h-fabp4-ecoli-r
recorded.metric: pIC50
Answer as the number alone; pIC50 is minus log10 of concentration in mol/L.

Field request: pIC50 | item: O=C(O)[C@@H]1[C@H]2C[C@H]2CN1C(=O)Nc1ccccc1-c1ccccc1 (racemic) [Example 9]
5.04

----------
Let's look at some compounds and their measured IC50.
- assay.target: human FABP5 (huFABP5) (Homo sapiens (Human))
- test.summary: Tb TR-FRET assay, binding of Bodipy labeled fatty acid to His6 tagged huFABP5
- settings: 50 nM FABP protein, […] Bodipy labeled fatty acid; read-out: IC50 h-fabp5-ecoli-r

Use the examples below as a reference point.
CC1(C(=O)O)CCCN1C(=O)Nc1ccccc1-c1ccccc1 (stereo not drawn): > 50 µM
O=C(O)[C@H]1CCN1C(=O)Nc1cc(Cl)ccc1-c1ccccc1: > 50 µM
O=C(O)[C@H]1CCCN1C(=O)Nc1cc(Cl)ccc1-c1csc2ccccc12: 42.2 µM
O=C(Nc1ccccc1-c1ccccc1)N1CCCC1(C(=O)O)c1ccccc1 (stereo not drawn): > 50 µM

Field request: IC50 | item: O=C(O)[C@H]1CCCN1C(=O)Nc1ccc(Cl)cc1-c1ccccc1
21 µM

----------
- assay.target: human FABP4 (huFABP4) (Homo sapiens (Human), UniProt P15090)
- Sequence (P15090 whole entry): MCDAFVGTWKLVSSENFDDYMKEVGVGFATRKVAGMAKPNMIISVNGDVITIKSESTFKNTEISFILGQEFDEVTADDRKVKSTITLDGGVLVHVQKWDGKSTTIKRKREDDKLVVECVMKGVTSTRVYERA
- test.summary: Tb TR-FRET assay, binding of Bodipy labeled fatty acid to His6 tagged huFABP4
- settings: 50 nM FABP protein, […] Bodipy labeled fatty acid; read-out: IC50 h-fabp4-ecoli-r
Let's look at some compounds and their measured pIC50.
Answer as the number alone; pIC50 is minus log10 of concentration in mol/L.

COc1ccc(-c2ccc(Cl)cc2NC(=O)N2CCC[C@@H]2C(=O)O)cc1: 5.46
O=C(O)[C@H]1CCCN1C(=O)Nc1cc(Cl)ccc1-c1ccsc1: 7.22
O=C(O)[C@H]1CCCN1C(=O)Nc1cc(Cl)ccc1Oc1ccccc1: 5.13

Give recorded pIC50 with human FABP4 (huFABP4) (Homo sapiens (Human), UniProt P15090) for the following compound: O=C(O)[C@H]1CCCN1C(=O)Nc1cc(F)ccc1-c1ccccc1
5.97

Another compound to look at: O=C(O)[C@H]1CCCN1C(=O)Nc1ccsc1-c1ccccc1
5.78

----------
- assay.target: human FABP4 (huFABP4) (Homo sapiens (Human))
- test.summary: Tb TR-FRET assay, binding of Bodipy labeled fatty acid to His6 tagged huFABP4
- settings: 50 nM FABP protein, […] Bodipy labeled fatty acid; read-out: IC50 h-fabp4-ecoli-r
Class (required): determined from IC50; valid ranges are bin 0 (below 60 nM), bin 1 (60 nM to below 1000 nM), bin 2 (1000 nM or more)

Previously resolved entries follow.
O=C(O)[C@@H]1CCN1C(=O)Nc1cc(Cl)ccc1-c1ccccc1: bin 2
O=C(O)[C@H]1CCCN1C(=O)Nc1cc(Cl)ccc1-c1csc2ccccc12: bin 1
O=C(O)[C@H]1CCCN1C(=O)Nc1cc(C(F)(F)F)ccc1-c1ccccc1: bin 2

Looking at N#Cc1ccc(-c2ccccc2)c(NC(=O)N2CCC[C@@H]2C(=O)O)c1 , which class would you pick?
bin 2

Another molecule to look at: Cc1cc(-c2ccccc2)c(NC(=O)N2CC[C@@H]2C(=O)O)cc1Cl
bin 0

Another molecule to look at: O=C(O)[C@H]1CCCN1C(=O)Nc1cc(Cl)cc(-c2ccccc2)c1-c1ccccc1
bin 1

Another molecule to look at: COc1cc(Cl)cc(NC(=O)N2CC[C@@H]2C(=O)O)c1-c1ccc(F)cc1
bin 0

Another molecule to look at: O=C(O)[C@H]1CCCN1C(=O)Nc1cc(Cl)ccc1-c1cccc(Cl)c1
bin 1

Another molecule to look at: O=C(O)[C@H]1CCCN1C(=O)Nc1cc(F)cc(F)c1-c1ccccc1
bin 1

Another molecule to look at: CCc1ccc(-c2ccccc2)c(NC(=O)N2CCC[C@@H]2C(=O)O)c1
bin 2

Another molecule to look at: O=C(O)[C@H]1CCN1C(=O)Nc1cc(Cl)ccc1-c1cccc(F)c1
bin 0

Another molecule to look at: O=C(O)[C@H]1CCN1C(=O)Nc1cc(Cl)ccc1-c1ccccc1F
bin 0

Provenance of the data: patent US9708340B2
